Each recorded value in this set is attributed to the supplement of paper PMC7125110.

B1: glmS ribozyme (parent)
chain: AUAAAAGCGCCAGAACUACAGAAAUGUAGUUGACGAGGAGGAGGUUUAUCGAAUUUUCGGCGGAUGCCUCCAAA

Variants of: B1
EXPERIMENTAL DETAILS: self-cleavage kobs at 2500 uM GlcN6P; higher = faster cleavage; RNA array
STATED CONDITIONS: with glucosamine-6-phosphate
This sample holds only a part of the variants without activity.
Provide the reported self-cleavage kobs at 2500 uM GlcN6P of each item.
Write down the numeric answer in s⁻¹ and omit the unit.

Q: Tell me the measured self-cleavage kobs at 2500 uM GlcN6P of U30A U46A , please.
A: 0.000372

Q: Tell me the measured self-cleavage kobs at 2500 uM GlcN6P of G13A G41A , please.
A: 3.77e-05

Q: Tell me the measured self-cleavage kobs at 2500 uM GlcN6P of C16U A48G , please.
A: 6.63e-05

Q: Tell me the measured self-cleavage kobs at 2500 uM GlcN6P of C11A A15G U69G , please.
A: 0.000159

Q: Tell me the measured self-cleavage kobs at 2500 uM GlcN6P of C11G C70G , please.
A: 5.33e-05

Q: Tell me the measured self-cleavage kobs at 2500 uM GlcN6P of A39C C67G , please.
A: 0.000216

Q: Tell me the measured self-cleavage kobs at 2500 uM GlcN6P of C10A C11U C70A , please.
A: 0.000126

Q: Tell me the measured self-cleavage kobs at 2500 uM GlcN6P of A39C U47C U55A , please.
A: 0.000971

Q: Tell me the measured self-cleavage kobs at 2500 uM GlcN6P of U31C A52U , please.
A: 5.04e-05

Q: Tell me the measured self-cleavage kobs at 2500 uM GlcN6P of G37A U54G U69A , please.
A: 5.96e-05

Q: Tell me the measured self-cleavage kobs at 2500 uM GlcN6P of C16G A39G , please.
A: 0.00841

Q: Tell me the measured self-cleavage kobs at 2500 uM GlcN6P of A14C G66C , please.
A: 5.12e-05

Q: Tell me the measured self-cleavage kobs at 2500 uM GlcN6P of C16G U31G , please.
A: 0.000366
